Parameter: log10 GI50. Scope: all listed entries.
- Tested on: OVCAR-8
- procedure-details: NCI60 five-dose GI50
- Format: cell-based
- condition-label: Homo sapiens, ovarian
A value of 2 here means GI50 of 100 in nM, since values are log10.

The examples below pair each entry with its known result.
molecule="COC(=O)c1c2c(c(C)[n+]([O-])c1C)C(=O)C=C(NCc1ccc(F)c(Cl)c1)C2=O [Compound 19]" outcome_measure="log10 GI50" measurement=2.40
molecule="COC(=O)c1c2c(c(C)[n+]([O-])c1C)C(=O)C(NCc1cccc(Cl)c1)=CC2=O [Compound 12]" outcome_measure="log10 GI50" measurement=3.18
molecule="COC(=O)c1c2c(c(C)[n+]([O-])c1C)C(=O)C=C(NCc1cccc(Cl)c1)C2=O [Compound 13]" outcome_measure="log10 GI50" measurement=2.47
molecule="COC(=O)c1c2c(c(C)[n+]([O-])c1C)C(=O)C(NCc1ccc(OC)cc1)=CC2=O [Compound 6]" outcome_measure="log10 GI50" measurement=3.44
molecule="COC(=O)c1c2c(c(C)[n+]([O-])c1C)C(=O)C(NCc1ccc(F)c(Cl)c1)=CC2=O [Compound 18]" outcome_measure="log10 GI50" measurement=3.38

In the following, a different molecule is considered.
[ask] Request body: readout log10 GI50, system OVCAR-8, query COC(=O)c1c2c(c(C)[n+]([O-])c1C)C(=O)C=C(NCc1cccc(OC)c1)C2=O [Compound 9] . Return the value.
[reply] 2.53
